test: Metabolic stability in mouse liver microsomes assessed as intrinsic clearance per mg of protein at 2 uM and mesured upto 60 mins in presence of NADPH by UHPLC-MS analysis; type: ADME, Microsome; conditions: microsomes, 1 h, 2 µM
Threshold 100 µL/min/mg: microsomal intrinsic clearance strictly smaller gives fulfilled, otherwise not fulfilled.

Here are 4 compounds together with their reported answers.
compound	class.label
CCOc1cnc(Nc2cccc(S(N)(=O)=O)c2)nc1N1CCN(c2ccccc2)C(=O)C1	fulfilled
COc1cnc(Nc2cccc(S(N)(=O)=O)c2)nc1N1CCN(c2ccccc2)CC1C (stereo unspecified)	not fulfilled
COc1cnc(Nc2cccc(S(N)(=O)=O)c2)nc1N1CCN(c2ccccc2)CC1	not fulfilled
COc1cnc(Nc2cccc(S(N)(=O)=O)c2)nc1N1CC(F)(c2ccccc2)C1	fulfilled

microsomal intrinsic clearance under 100 µL/min/mg? Item: COc1cnc(Nc2cccc(S(N)(=O)=O)c2)nc1N1CCN(c2ccccc2)C(C)C1 (stereo unspecified)
not fulfilled
